measurement_notes: PK analysis after p.o. administration of N-251 in fasted mice
Format: in vivo
details: ICR, mouse, plasma, po, every group of dose (30-210 mg/kg)
endpoint_name: Tmax
Write your answer as a measured quantity: the number, then the unit.

State, in one line, measured Tmax of "OCCCCCCC1COOC2(CCCCCCCCCCC2)OOC1" 2 h

###

measurement_notes: PK analysis after i.v. administration of N-251 in fasted mice
Assay type: in vivo
details: male, ICR, mouse, plasma, iv; i.v. 5, 10 and 25 mg/kg, range over doses; read-out: T1/2β
endpoint_name: half-life

State, in one line, measured half-life of "OCCCCCCC1COOC2(CCCCCCCCCCC2)OOC1" 1.5 to 1.99 h
